System: peroxylipid formation
method.summary: Anti-lipidperoxidation effect (TBA assay of malondialdehyde in rat brain homogenate)
Assay type: biochemical, rat (male Wistar)
measurement.conditions: 10 μl (10^-4 M) test compound in 990 μl sample, 37° C., 30 minutes, pH 7.4
Dear colleague, classification is by Inhibition of peroxylipid formation, with ranges listed here: lower range: < 60%; middle range: ≥ 60% and < 80%; upper range: ≥ 80%

compound | discrete.label
CCN(CC)CCCON=C1c2ccccc2OC2(c3ccccc3)CC12 (stereo not shown) [Example 16] | upper range
CC(CON=C1c2ccccc2OC2(c3ccccc3)CC12)CN(C)C (stereo not shown) [Example 4] | lower range
CN(C)CCCCON=C1c2ccccc2OC2(c3ccccc3)CC12 (stereo not shown) [Example 19] | lower range

Problem: Class label required: CN(C)CCCOC1c2ccc(Cl)cc2OC2(c3ccccc3)CC12 (stereo not shown) [Example 27]
Result: middle range

Problem: Class label required: CN(C)CCCCCON=C1c2ccccc2OC2(c3ccccc3)CC12 (stereo not shown) [Example 21]
Result: middle range

Problem: Class label required: CN(C)CCCON=C1c2ccc(Cl)cc2OC2(c3ccccc3)CC12 (stereo not shown) [Example 9]
Result: upper range

Problem: Class label required: CNCCCON=C1c2ccccc2OC2(c3ccccc3)CC12 (stereo not shown) [Example 15]
Result: upper range

Problem: Class label required: CN(C)CCON=C1c2ccc(Cl)cc2OC2(c3ccccc3)CC12 (stereo not shown) [Example 8]
Result: upper range

---

System: peroxylipid formation
method.summary: Anti-lipidperoxidation effect (TBA assay of malondialdehyde in rat brain homogenate)
Format: biochemical, rat (male Wistar)
measurement.conditions: 10 μl (10^-4 M) test compound in 990 μl sample, 37° C., 30 minutes, pH 7.4
property: Inhibition of peroxylipid formation
Please state the value followed by its unit.

Reference set (3 entries):
molecule | Inhibition of peroxylipid formation
COc1ccc2c(c1)OC1(c3ccccc3)CC1C2OCCN(C)C (centres unmarked) [Example 28] | 77.6%
CN(C)CCCON=C1c2ccc(Cl)cc2OC2(c3ccc([N+](=O)[O-])cc3)CC12 (centres unmarked) [Example 12] | 99.0%
CN(C)CCON=C1c2ccccc2OC2(c3ccccc3)CC12 (centres unmarked) [Example 1] | 56.9%

Problem: Answer with the recorded Inhibition of peroxylipid formation for the molecule listed here: c1ccc(C23CC2C(=NOCCC24CCCN2CCC4)c2ccccc2O3)cc1 (centres unmarked) [Example 5]
Result: 96.5%

Problem: Answer with the recorded Inhibition of peroxylipid formation for the molecule listed here: CN(C)CCCOC1c2ccc(O)cc2OC2(c3ccccc3)CC12 (centres unmarked) [Example 35]
Result: 69.0%
